Taken from patent US6737383B1.

# System: sugar beet
# Protocol text: Test B pre/postemergence sugar beet
# Type: in vivo, Beta vulgaris
# Test context: Rate 250 g/ha, Postemergence; scale of 0 to 10 where 0 is no effect and 10 is complete control
Reported Plant response rating, Sugarbeets values follow for various compounds

Compound	Measured target	Plant response rating, Sugarbeets
CC1Cc2cccc(-n3c(=O)on(C(=O)N(c4ccc(F)cc4)C(C)C)c3=O)c2O1 (stereo not shown)	sugar beet	0
CC(C)N(C(=O)n1oc(=O)n(Cc2nnsc2Cl)c1=O)c1ccc(F)cc1F	sugar beet	2
CC(C)N(C(=O)n1oc(=O)n(CCCCF)c1=O)c1ccc(F)cc1	sugar beet	0
CCC=CCn1c(=O)on(C(=O)N(c2ccc(F)cc2F)C(C)C)c1=O	sugar beet	0

====

Catalogue of Blackgrass plant response rating readings, one per entry.
# System: blackgrass
# Protocol text: Test B pre/postemergence blackgrass
# Assay type: in vivo, Alopecurus myosuroides
# Test context: Rate 62 g/ha, Postemergence; scale of 0 to 10 where 0 is no effect and 10 is complete control

Compound	Blackgrass plant response rating
CC(C)N(C(=O)n1oc(=O)n(CCC2OCCO2)c1=O)c1ccc(F)cc1	5
CC(C)N(C(=O)n1oc(=O)n(C)c1=O)c1ccc(F)cc1F	7
CC(C)N(C(=O)n1oc(=O)n(CC2(C)COC2)c1=O)c1ccccc1	0
CC(C)N(C(=O)n1oc(=O)n(C2CCCC2)c1=O)c1ccc(F)cc1	3
CC(C)N(C(=O)n1oc(=O)n(C(C)C)c1=O)c1ccccc1	8
CC1CC1n1c(=O)on(C(=O)N(c2ccccc2)C(C)C)c1=O (centres unmarked)	2
Cc1nsc(C)c1-n1c(=O)on(C(=O)N(c2ccc(F)cc2F)C(C)C)c1=O	1
Cc1ccccc1-n1c(=O)on(C(=O)N(c2ccc(F)cc2Cl)C(C)C)c1=O	0
CC(C)N(C(=O)n1oc(=O)n(Cc2ccccc2)c1=O)c1ccc(Cl)cc1	0
CC(C)N(C(=O)n1oc(=O)n(Cc2ccccn2)c1=O)c1ccc(F)cc1	0
Cc1ccccc1-n1c(=O)on(C(=O)N(c2ccc(C(C)C)cc2)C(C)C)c1=O	0
CCC(CC)n1c(=O)on(C(=O)N(c2ccc(F)cc2)C(C)C)c1=O	2
COc1cc(C)cc(C)c1-n1c(=O)on(C(=O)N(c2ccc(F)cc2)C(C)C)c1=O	0
Cc1ccccc1-n1c(=O)on(C(=O)N(c2ccc(Oc3ccccc3)cc2)C(C)C)c1=O	0

====

// Velvetleaf plant response rating lookup, one value per entry
# System: velvetleaf
# Protocol text: Test B pre/postemergence velvetleaf
# Type: in vivo, Abutilon theophrasti
# Test context: Preemergence, Rate 500 g/ha; scale of 0 to 10 where 0 is no effect and 10 is complete control
Measured property: Velvetleaf plant response rating

Molecule	Experimental result
COCn1c(=O)on(C(=O)N(c2ccc(F)cc2F)C(C)C)c1=O	8
CC(C)N(C(=O)n1oc(=O)n(CC2=NCCCO2)c1=O)c1ccccc1	0
CCc1cccc(CC)c1-n1c(=O)on(C(=O)N(c2ccc(F)cc2)C(C)C)c1=O	0
CC(C)N(C(=O)n1oc(=O)n(Cc2nnsc2Cl)c1=O)c1ccc(F)cc1F	0
CC(C)N(C(=O)n1oc(=O)n(C2(C)CC2)c1=O)c1ccc(F)cc1F	7
CCCCCn1c(=O)on(C(=O)N(c2ccccc2)C(C)C)c1=O	0
CC(C)N(C(=O)n1oc(=O)n(CC2CCOC2)c1=O)c1ccc(F)cc1 (stereo not drawn)	7
CC(C)N(C(=O)n1oc(=O)n(CC2CCCO2)c1=O)c1ccc(F)cc1 (stereo not drawn)	7
CC1CC1n1c(=O)on(C(=O)N(c2ccccc2)C(C)C)c1=O (stereo not drawn)	6

====

# System: pigweed
# Protocol text: Test B pre/postemergence pigweed
# Type: in vivo, Amaranthus retroflexus
# Test context: Preemergence, Rate 500 g/ha; scale of 0 to 10 where 0 is no effect and 10 is complete control
Below, each entry is listed with its recorded Redroot pigweed plant response rating.
Measured property: Redroot pigweed plant response rating

Compound	Experimental result
CC(C)N(C(=O)n1oc(=O)n(CCC2OCCCO2)c1=O)c1ccc(Cl)cc1	0
CC(C)N(C(=O)n1oc(=O)n(CC2CCOC2)c1=O)c1ccc(F)cc1 (stereo not shown)	10
CC1CC1n1c(=O)on(C(=O)N(c2ccc(F)cc2)C(C)C)c1=O (stereo not shown)	10
CC(C)N(C(=O)n1oc(=O)n(CCCNC(=O)CCl)c1=O)c1ccccc1	0

====

Readings of Morningglory plant response rating for the listed compounds
# Tested on: morningglory
# Protocol text: Test B pre/postemergence morningglory
# Assay type: in vivo, Ipomoea hederacea
# Test context: Rate 500 g/ha, Postemergence; scale 0 to 10, 0 no effect, 10 complete control

Compound	Morningglory plant response rating
CC1Cc2cccc(-n3c(=O)on(C(=O)N(c4ccc(F)cc4)C(C)C)c3=O)c2O1 (stereo not drawn)	5
COc1cccc(C)c1-n1c(=O)on(C(=O)N(c2ccccc2)C(C)C)c1=O	4
[2H]C([2H])([2H])n1c(=O)on(C(=O)N(c2ccc(F)cc2)C(C)C)c1=O	9
Cc1nn(C)c(C)c1-n1c(=O)on(C(=O)N(c2ccc(F)cc2F)C(C)C)c1=O	7
CCN(Cc1ccccc1)C(=O)n1oc(=O)n(-c2ccccc2C)c1=O	0
CC(C)N(C(=O)n1oc(=O)n(Cc2ccccn2)c1=O)c1ccc(F)cc1	8
CCOC(=O)C(C)N(C(=O)n1oc(=O)n(-c2ccccc2C)c1=O)c1ccc(F)cc1 (stereo not drawn)	2
COc1cccc(C)c1-n1c(=O)on(C(=O)N(c2ccc(F)cc2)C(C)C)c1=O	6
CCCCCCCCCCCCCCCCCCCn1c(=O)on(C(=O)N(c2ccc(F)cc2)C(C)C)c1=O	0

====

# System: wheat
# Protocol text: Test B pre/postemergence wheat
# Type: in vivo, Triticum aestivum
# Test context: Rate 500 g/ha, Postemergence; scale 0 to 10, 0 no effect, 10 complete control
The following compounds are shown together with reported Plant response rating, Wheat values.
Measured property: Plant response rating, Wheat

Compound	Experimental result
CC(C)N(C(=O)n1oc(=O)n(C2(C)CC2)c1=O)c1ccc(Cl)cc1	2
CC(C)N(C(=O)n1oc(=O)n(C2CC3CCC2C3)c1=O)c1ccccc1 (centres unmarked)	0
CC(C)N(C(=O)n1oc(=O)n(C2(C)CC2)c1=O)c1ccc(F)cc1F	6
CC(C)N(C(=O)n1oc(=O)n(CC2CCCO2)c1=O)c1ccc(F)cc1 (centres unmarked)	5
CC(C)N(C(=O)n1oc(=O)n(CC2CCOC2)c1=O)c1ccc(F)cc1 (centres unmarked)	6

====

# Tested on: bedstraw
# Protocol text: Test B pre/postemergence bedstraw
# Format: in vivo, Galium aparine
# Test context: Preemergence, Rate 62 g/ha; scale 0 to 10 (0 no effect, 10 complete control)

Compound	Measured target	Bedstraw plant response rating
C#CC(C)n1c(=O)on(C(=O)N(c2ccccc2)C(C)C)c1=O (stereo not shown) [Compound 609]	bedstraw	4
CC(C)N(C(=O)n1oc(=O)n(CCc2ccccc2)c1=O)c1ccccc1 [Compound 567]	bedstraw	0
CC(C)N(C(=O)n1oc(=O)n(CC2CCC2)c1=O)c1ccc(Cl)cc1 [Compound 550]	bedstraw	0
CCCCCn1c(=O)on(C(=O)N(c2ccccc2)C(C)C)c1=O [Compound 557]	bedstraw	0

====

# Test system: morningglory
# Protocol text: Test B pre/postemergence morningglory
# Format: in vivo, Ipomoea hederacea
# Test context: Rate 125 g/ha, Postemergence; scale of 0 to 10 where 0 is no effect and 10 is complete control
A collection of compounds and their measured Morningglory plant response rating
Measured property: Morningglory plant response rating

CC(C)N(C(=O)n1oc(=O)n(Cc2ccccn2)c1=O)c1ccc(F)cc1 1
CCc1cccc(CC)c1-n1c(=O)on(C(=O)N(c2ccc(F)cc2)C(C)C)c1=O 3
CCN(C(=O)n1oc(=O)n(C2CC2)c1=O)C1CCCCC1 3
CCN(C(=O)n1oc(=O)n(C(C)C)c1=O)C1CCCCC1 1

====

# Tested on: morningglory
# Protocol text: Test B pre/postemergence morningglory
# Format: in vivo, Ipomoea hederacea
# Test context: Rate 62 g/ha, Postemergence; scale of 0 to 10 where 0 is no effect and 10 is complete control
Morningglory plant response rating reference

Compound	Measured target	Morningglory plant response rating
CC(C)N(C(=O)n1oc(=O)n(Cc2ccccc2Cl)c1=O)C1=CCCCC1 [Compound 145]	morningglory	6
CC(C)N(C(=O)n1oc(=O)n(Cc2ccccc2)c1=O)c1ccc(Cl)cc1 [Compound 106]	morningglory	6
Cc1ccccc1-n1c(=O)on(C(=O)N(c2ccc(C(C)C)cc2)C(C)C)c1=O [Compound 231]	morningglory	1
CC(C)N(C(=O)n1oc(=O)n(C2CCC2)c1=O)c1ccc(F)cc1F [Compound 351]	morningglory	3
CC(C)N(C(=O)n1oc(=O)n(CC2CCOC2)c1=O)c1ccc(F)cc1 (centres unmarked) [Compound 375]	morningglory	1
CC1CC1n1c(=O)on(C(=O)N(c2ccccc2)C(C)C)c1=O (centres unmarked) [Compound 370]	morningglory	10
COc1cc(C)cc(C)c1-n1c(=O)on(C(=O)N(c2ccc(F)cc2)C(C)C)c1=O [Compound 222]	morningglory	1
CC(C)N(C(=O)n1oc(=O)n(C2(C)CC2)c1=O)c1ccc(F)cc1F [Compound 363]	morningglory	1
